# SYSTEM: met (HGF receptor) in human gastric cancer cells MKN45 (Homo sapiens, UniProt P08581)
# Construct: endogenous in cells
# Sequence (P08581 25-1390): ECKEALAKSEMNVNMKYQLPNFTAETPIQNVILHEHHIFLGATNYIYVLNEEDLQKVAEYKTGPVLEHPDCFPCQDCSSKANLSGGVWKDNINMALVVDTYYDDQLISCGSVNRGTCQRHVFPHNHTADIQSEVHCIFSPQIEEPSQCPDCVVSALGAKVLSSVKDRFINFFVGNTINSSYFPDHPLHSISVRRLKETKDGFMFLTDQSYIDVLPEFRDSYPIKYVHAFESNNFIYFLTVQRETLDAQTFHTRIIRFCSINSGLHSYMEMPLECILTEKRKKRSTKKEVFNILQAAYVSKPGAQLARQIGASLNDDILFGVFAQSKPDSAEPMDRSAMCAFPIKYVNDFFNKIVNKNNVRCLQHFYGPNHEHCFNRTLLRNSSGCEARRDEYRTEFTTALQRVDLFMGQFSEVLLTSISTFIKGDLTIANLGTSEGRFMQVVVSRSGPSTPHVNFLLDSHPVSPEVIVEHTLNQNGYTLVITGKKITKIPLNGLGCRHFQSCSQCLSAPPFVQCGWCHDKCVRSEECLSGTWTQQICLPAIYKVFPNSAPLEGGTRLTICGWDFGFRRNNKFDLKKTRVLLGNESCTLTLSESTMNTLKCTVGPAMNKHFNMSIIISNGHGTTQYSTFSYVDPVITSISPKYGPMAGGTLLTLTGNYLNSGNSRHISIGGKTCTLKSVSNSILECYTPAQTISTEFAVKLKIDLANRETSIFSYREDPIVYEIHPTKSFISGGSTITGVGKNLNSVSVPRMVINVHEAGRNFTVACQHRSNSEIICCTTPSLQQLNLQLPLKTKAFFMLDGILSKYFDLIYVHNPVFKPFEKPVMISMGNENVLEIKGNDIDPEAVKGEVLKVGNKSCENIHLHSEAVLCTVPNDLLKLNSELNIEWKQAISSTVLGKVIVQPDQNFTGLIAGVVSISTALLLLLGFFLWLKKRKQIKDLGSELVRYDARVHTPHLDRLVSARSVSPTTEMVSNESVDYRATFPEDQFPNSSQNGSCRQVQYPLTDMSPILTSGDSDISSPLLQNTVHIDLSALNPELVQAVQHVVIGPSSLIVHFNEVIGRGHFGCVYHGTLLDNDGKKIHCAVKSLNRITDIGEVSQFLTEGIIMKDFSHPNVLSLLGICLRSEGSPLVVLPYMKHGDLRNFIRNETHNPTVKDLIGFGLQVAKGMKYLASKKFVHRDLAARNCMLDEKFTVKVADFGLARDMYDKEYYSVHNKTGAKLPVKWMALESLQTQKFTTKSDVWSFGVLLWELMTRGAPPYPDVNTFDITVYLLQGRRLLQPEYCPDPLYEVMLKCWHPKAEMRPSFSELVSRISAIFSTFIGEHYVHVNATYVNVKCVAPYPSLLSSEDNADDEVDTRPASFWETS
# EXPERIMENTAL PROTOCOL: Inhibitory activity against met-autophosphorylation using ELISA method (2), MKN45 cells, HGF-independent
ENDPOINT NAME: IC50 (nM)

INSERT INTO results (molecule, system, unit_abbreviation, meas_value) VALUES
  ('COc1cc2nccc(Oc3ccc(NC(=O)NC(=O)CN4CCc5ccccc54)c(F)c3)c2cc1OC', 'met (HGF receptor) in human gastric cancer cells MKN45 (Homo sapiens, UniProt P08581)', 'nM', 338),
  ('COc1cc2nccc(Oc3ccc(NC(=O)CC(=O)N(C)c4ccccc4)cc3)c2cc1OC', 'met (HGF receptor) in human gastric cancer cells MKN45 (Homo sapiens, UniProt P08581)', 'nM', 228),
  ('COc1cc2nccc(Oc3ccc(NC(=S)NC(=O)Cc4ccccc4C)cc3Cl)c2cc1OC', 'met (HGF receptor) in human gastric cancer cells MKN45 (Homo sapiens, UniProt P08581)', 'nM', 236),
  ('COc1cc2c(Oc3ccc(NC(=S)NC(=O)Cc4ccc(Cl)cc4)cc3F)ccnc2cc1OCC(O)CN1CCCC1 (centres unmarked)', 'met (HGF receptor) in human gastric cancer cells MKN45 (Homo sapiens, UniProt P08581)', 'nM', 43.2),
  ('COc1cc2c(Oc3ccc(NC(=O)NC(=O)Cc4ccc(F)cc4)cc3F)ccnc2cc1OCCN1CCCCC1', 'met (HGF receptor) in human gastric cancer cells MKN45 (Homo sapiens, UniProt P08581)', 'nM', 224);

[1] COc1cc2nccc(Oc3ccc(NC(=S)NC(=O)CCCC(C)C)c(F)c3)c2cc1OC
[2] COc1cc2c(Oc3ccc(NC(=O)CC(=O)Nc4ccc(F)cc4)cc3F)ccnc2cc1OCCCN1CCOCC1
Identify the entry with the larger IC50. Options: 1 and 2 Your answer should be the label attached to the chosen record.
1
(1: 268 nM, 2: 12.5 nM)

----------
# SYSTEM: met (HGF receptor) in human gastric cancer cells MKN45 (Homo sapiens, UniProt P08581)
# Construct: endogenous in cells
# EXPERIMENTAL PROTOCOL: Inhibitory activity against met-autophosphorylation using ELISA method (2), MKN45 cells, HGF-independent
pIC50: −log10 of the molar value.
ENDPOINT NAME: pIC50

INSERT INTO results (compound, meas_value) VALUES
  ('COc1cc2nccc(Oc3ccc(NC(=S)NC(=O)CCc4ccccc4C)cc3F)c2cc1OC', 6.85),
  ('COc1cc2nccc(Oc3ccc(NC(=O)NC(=O)Nc4ccc(Cl)cn4)cc3)c2cc1OC', 6.48),
  ('COc1cc2nccc(Oc3ccc(NC(=O)NC(=O)Cc4ccccc4C(F)(F)F)c(F)c3)c2cc1OC', 6.47),
  ('COc1cc2nccc(Oc3ccc(NC(=S)NC(=O)CC4C5CCC4CC5)cc3)c2cc1OC (centres unmarked)', 7.31);

[I] COc1cc2nccc(Oc3ccc(NC(=O)NC(=O)Cc4ccccc4F)c(F)c3)c2cc1OC
[II] COc1cc2c(Oc3ccc(NC(=O)NC(=O)Cc4ccccc4F)cc3F)ccnc2cc1OCCCN1CCN(C)CC1
[III] COc1cc2nccc(Oc3ccc(NC(=S)NC(=O)Cc4ccccc4)c(Cl)c3)c2cc1OC
Exam item: list the entries in increasing order of pIC50. Give your ranking as a list of the labels in the requested order.
I, III, II
(I: 6.90, III: 7.18, II: 7.71)

These data points were gathered from patent US8324245B2.
